Parameter kcat/Km: see the listing below.
- Substrate: O=C(Nc1ccccc1)C(=O)c1ccccc1
- test: initial velocity by HPLC of product, nonlinear Michaelis-Menten fit
- Format: biochemical, Bacillus subtilis
- conditionLabel: NAD(P)H cofactor, potassium phosphate 100 mM pH 7.0, 30 °C
Lab book: enter the figure in M⁻¹ s⁻¹, no units written.

Task: Supply reported kcat/Km belonging to this protein: iolS (Bacillus subtilis subsp. subtilis str. 168; F126A/N21A) (protein, pET28a, His-tagged, expressed in E. coli BL21(DE3), Ni-NTA purified) MKKAKLGKSDLQVFPIGLGTAAVGGHNLYPNLNEETGKELVREAIRNGVTMLDTAYIYGIGRSEELIGEVLREFNREDVVIATKAAHRKQGNDFVFDNSPDFLKKSVDESLKRLNTDYIDLFYIHAPDEHTPKDEAVNALNEMKKAGKIRSIGVSNFSLEQLKEANKDGLVDVLQGEYNLLNREAEKTFFPYTKEHNISFIPYFPLVSGLLAGKYTEDTTFPEGDLRNEQEHFKGERFKENIRKVNKLAPIAEKHNVDIPHIVLAWYLARPEIDILIPGAKRADQLIDNIKTADVTLSQEDISFIDKLFA
Result: 3880

Task: Supply reported kcat/Km belonging to this protein: iolS (Bacillus subtilis subsp. subtilis str. 168; F126L) (protein, pET28a, His-tagged, expressed in E. coli BL21(DE3), Ni-NTA purified) MKKAKLGKSDLQVFPIGLGTNAVGGHNLYPNLNEETGKELVREAIRNGVTMLDTAYIYGIGRSEELIGEVLREFNREDVVIATKAAHRKQGNDFVFDNSPDFLKKSVDESLKRLNTDYIDLFYIHLPDEHTPKDEAVNALNEMKKAGKIRSIGVSNFSLEQLKEANKDGLVDVLQGEYNLLNREAEKTFFPYTKEHNISFIPYFPLVSGLLAGKYTEDTTFPEGDLRNEQEHFKGERFKENIRKVNKLAPIAEKHNVDIPHIVLAWYLARPEIDILIPGAKRADQLIDNIKTADVTLSQEDISFIDKLFA
Result: 2450

Task: Supply reported kcat/Km belonging to this protein: iolS (Bacillus subtilis subsp. subtilis str. 168; F126L/I57F) (protein, pET28a, His-tagged, expressed in E. coli BL21(DE3), Ni-NTA purified) MKKAKLGKSDLQVFPIGLGTNAVGGHNLYPNLNEETGKELVREAIRNGVTMLDTAYFYGIGRSEELIGEVLREFNREDVVIATKAAHRKQGNDFVFDNSPDFLKKSVDESLKRLNTDYIDLFYIHLPDEHTPKDEAVNALNEMKKAGKIRSIGVSNFSLEQLKEANKDGLVDVLQGEYNLLNREAEKTFFPYTKEHNISFIPYFPLVSGLLAGKYTEDTTFPEGDLRNEQEHFKGERFKENIRKVNKLAPIAEKHNVDIPHIVLAWYLARPEIDILIPGAKRADQLIDNIKTADVTLSQEDISFIDKLFA
Result: 2510

Now turn to the next protein.
Task: Supply reported kcat/Km belonging to this protein: iolS (Bacillus subtilis subsp. subtilis str. 168) (protein, pET28a, His-tagged, expressed in E. coli BL21(DE3), Ni-NTA purified) MKKAKLGKSDLQVFPIGLGTNAVGGHNLYPNLNEETGKELVREAIRNGVTMLDTAYIYGIGRSEELIGEVLREFNREDVVIATKAAHRKQGNDFVFDNSPDFLKKSVDESLKRLNTDYIDLFYIHFPDEHTPKDEAVNALNEMKKAGKIRSIGVSNFSLEQLKEANKDGLVDVLQGEYNLLNREAEKTFFPYTKEHNISFIPYFPLVSGLLAGKYTEDTTFPEGDLRNEQEHFKGERFKENIRKVNKLAPIAEKHNVDIPHIVLAWYLARPEIDILIPGAKRADQLIDNIKTADVTLSQEDISFIDKLFA
Result: 1950
